SYSTEM NAME: Rac GTPase-activating protein 1 (Homo sapiens, UniProt Q9H0H5)
Sequence (Q9H0H5 whole entry): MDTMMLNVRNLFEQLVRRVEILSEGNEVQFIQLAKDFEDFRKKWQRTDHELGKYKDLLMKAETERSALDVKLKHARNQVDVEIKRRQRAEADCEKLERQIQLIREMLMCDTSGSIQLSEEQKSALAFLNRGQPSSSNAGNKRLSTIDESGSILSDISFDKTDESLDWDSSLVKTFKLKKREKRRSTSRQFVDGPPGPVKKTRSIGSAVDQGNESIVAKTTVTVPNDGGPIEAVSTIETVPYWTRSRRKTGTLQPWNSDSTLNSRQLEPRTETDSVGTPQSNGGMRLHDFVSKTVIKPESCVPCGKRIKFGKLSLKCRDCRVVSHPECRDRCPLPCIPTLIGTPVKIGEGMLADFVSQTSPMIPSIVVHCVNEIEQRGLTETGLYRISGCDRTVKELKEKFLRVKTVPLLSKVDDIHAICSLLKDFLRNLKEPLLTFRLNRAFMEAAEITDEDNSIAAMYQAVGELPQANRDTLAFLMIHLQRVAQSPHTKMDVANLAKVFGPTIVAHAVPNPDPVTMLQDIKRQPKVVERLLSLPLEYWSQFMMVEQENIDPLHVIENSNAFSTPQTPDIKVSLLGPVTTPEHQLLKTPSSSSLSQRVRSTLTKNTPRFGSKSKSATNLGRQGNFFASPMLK
TEST: MgcRacGAP GTPase-activating activity inhibitors, confirmation, biochemical, ADP Hunter fluorescence, primary and confirmatory (AID 624330)
Type: functional
Active and inactive are the calls of the source. No rule for the calls is given here.
ENDPOINT: IC50

The cases that follow already have their IC50 on record.
CCOC(=O)C1(C)C=C(Nc2ccc(O)cc2)C(=O)N1c1ccc(O)cc1 (stereo unspecified) :: 21.4 µM (active)
COc1cc(OC)cc(C(=O)N2CCN(Cc3ccc4c(c3)OCO4)CC2)c1 :: 188 µM (active)
Clc1ccc(OCCOCCNCc2ccccc2)cc1Cl :: 149 µM (active)
Sc1nnc2sc3ccccc3n12 :: 35.8 µM (active)
CC1=C/C(=C(\c2cc(C)c(O)c(Br)c2)c2ccccc2S(=O)(=O)O)C=C(Br)C1=O :: 79.4 µM (active)

Record "CCOc1cc(/C=N/NC(=O)CSc2cccc3cccnc23)ccc1O" : what is its IC50 with Rac GTPase-activating protein 1 (Homo sapiens, UniProt Q9H0H5)?
34.2 µM (active)

Similarly, "c1ccc(OCCCN2CCCC2)cc1" ?
159 µM (active)

Please answer likewise for "O=C(O)c1ccccc1C(=O)Nc1ccc(Nc2ccccc2)cc1"
55.5 µM (active)

Next up: "CCOc1cc(/C=N/Nc2ncnc(Cl)c2N)ccc1O"
25.2 µM (active)

Now the molecule "COc1cc(N=Nc2ccc(C)cc2S(N)(=O)=O)c(C)cc1N"
76.2 µM (active)

Now consider N#CC1=C(Nc2ccccc2Cl)SC(c2ccccc2O)NC1=O (stereo unspecified) .
129 µM (active)

What would you report for "CN(C)CCCNc1ncnc2sc(-c3ccccc3)cc12" ?
29.9 µM (active)

Please give the result for "COc1ccc(CNc2ncc(-c3ccccc3)n2C)c(OC)c1OC" too.
65.7 µM (active)

Would you kindly repeat that for COc1ccc(NC2CCCN(C(=O)CCc3scnc3C)C2)cc1 (stereo unspecified) ?
96.1 µM (active)
